Ref: patent US20260258115A1

Item-by-item account of pKd
- target: RSV prefusion F (preF), subtype B (respiratory syncytial virus, subtype B)
- test.method.notes: BLI, IgG
pKd: −log10 of the molar value.
measured.parameter: pKd

{"columns": ["binder", "reported.result"],
 "data": [
  ["ADI-14405 (antibody, V domains shown, also called Ab 71) VH: QVQLVQSGTEVKKPGASVKVSCKASGYTFTNYDISWVRQAPGQGLEWMGWISGSTGNTIYAQNLQGRLTMTTDTSTSTAYMELRSLRSDDTAIYYCARDNVGYASGNYFDYWGQGTLVTVSS VL: SYVLTQPPSVSVAPGKTARIPCGGNNIGSKSVHWYQQRPGQAPVLVIYYDSVRPSGIPERFSGSNSGNTATLTISTVEAGDEADFYCQVWDSSRDHEVFGGGTKLTVL", 9.64],
  ["ADI-20974 (antibody, V domains shown) VH: EVQLVESGGGLVKPGGSLRLSCAASGFSFSSYQINWVRQAPGKGLEWVSSISGGSSYTDYADSIKGRFTISRDNAKKSAFLQMKSLRADDTAVYYCARALMATAGGLAFDIWGQGTMVTVSS VL: QPVLTQPPSVSGAPGQRVTISCTGSGSNIGAGYDVHWYQQVPGTAPKLLILRNTNRPSGVPDRFSGSKSGTSASLAITGLQAEDEADYYCQSYDRSLSVVFGGGTKLTVL", 9.44],
  ["ADI-20984 (antibody, V domains shown) VH: EVQLLETGAEVKKPGASVKVSCHVSGYGLTDLSMHWVRQAPGKRLQWMGSFDPQYGETIDTQNFQGRVTMTVDTSTATLYMQLSGLRSEDTAMYYCATPQSTGALDNWGQGTLVTVSS VL: DIRVTQSPSSLSASVGDRVTITCRASQSISSYLSWYQQKPGKAPRLVIFAASNLQSGVPSRFSGTGSSRFSDSGSWTDFTLTISSLQPEDFAIYYCQQTYITPFTFGQGTKVDIK", 7.69],
  ["ADI-14600 (antibody, V domains shown) VH: QVQLVQSGGGLVKPGGSLRLSCAASGFSFSDYYMNWIRQAPGKGLEWVSYISSSSSYTNYADSVKGRFTISRDNAKKSLYLQMNSLRAEDTAVYYCASQTYSDYARGGAFDIWGQGTTVTVSS VL: QSVLTQPPSVSGAPGQRVTISCTGSSSNIGAGYDVHWYQQLPGTAPKLLIYGNNNRPSGVPDRFSGSKSGTSASLAITGLQAEDEADYYCQSYDSSLSGSVFGTGTKVTVL", 9.01],
  ["ADI-21029 (antibody, V domains shown) VH: QVQLVQSGAEVRKPGESLKISCKASGYSFTNYWIGWVRQMPGKGLEWMGIVYPADSHPVYSPSFQGQVTFSTDKSINTAYLQWSSLKASDTAMYFCARRDGGTDYLSDAFDIWGQGTMVTVSS VL: DIVMTQSPSSLSASVGDRVTITCRTSQSIRRYLNWYQQKPGKAPKLLIYAASSLQSGVPSRFSGSGSGTDFTLTISSLQPEDFATYYCQQSYSTPNTFGQGTKVEIK", 8.08]
]}
